Tested on: Giardia intestinalis
Experiment: […] activity against Giardia intestinalis ATCC 30888 after 48 hrs by XTT assay
Type: functional, organism-based
Conditions: Giardia duodenalis
MEASURED ENDPOINT: IC50

>>> print(df.to_string())
                   structure_smiles_string          study_target  measured_endpoint       value
0     O=c1c(-c2ccc(O)cc2)coc2cc(O)cc(O)c12  Giardia intestinalis               IC50   > 5 µg/mL
1     COc1ccc(-c2coc3cc(O)c(OC)cc3c2=O)cc1  Giardia intestinalis               IC50   > 5 µg/mL
2        O=c1c(-c2ccc(O)cc2)coc2cc(O)ccc12  Giardia intestinalis               IC50  3.75 µg/mL
3      COc1ccc(-c2coc3cc(O)cc(O)c3c2=O)cc1  Giardia intestinalis               IC50   3.5 µg/mL
4    O=c1c(-c2ccc3c(c2)OCO3)coc2cc(O)ccc12  Giardia intestinalis               IC50  0.56 µg/mL
5  COc1cc2c(=O)c(-c3ccc4c(c3)OCO4)coc2cc1O  Giardia intestinalis               IC50   1.5 µg/mL
6         COc1ccc(-c2coc3cc(O)ccc3c2=O)cc1  Giardia intestinalis               IC50  0.03 µg/mL
7    COc1cc2c(cc1-c1coc3cc(O)ccc3c1=O)OCO2  Giardia intestinalis               IC50  > 10 µg/mL
8                Cc1ncc([N+](=O)[O-])n1CCO  Giardia intestinalis               IC50   0.1 µg/mL
